Recorded measurements of pIC50, one per entry
Biological target: PI3Kδ (p110δ/p85α) Recombinant Human Protein (Homo sapiens (Human), UniProt O00329)
Sequence (O00329 whole entry): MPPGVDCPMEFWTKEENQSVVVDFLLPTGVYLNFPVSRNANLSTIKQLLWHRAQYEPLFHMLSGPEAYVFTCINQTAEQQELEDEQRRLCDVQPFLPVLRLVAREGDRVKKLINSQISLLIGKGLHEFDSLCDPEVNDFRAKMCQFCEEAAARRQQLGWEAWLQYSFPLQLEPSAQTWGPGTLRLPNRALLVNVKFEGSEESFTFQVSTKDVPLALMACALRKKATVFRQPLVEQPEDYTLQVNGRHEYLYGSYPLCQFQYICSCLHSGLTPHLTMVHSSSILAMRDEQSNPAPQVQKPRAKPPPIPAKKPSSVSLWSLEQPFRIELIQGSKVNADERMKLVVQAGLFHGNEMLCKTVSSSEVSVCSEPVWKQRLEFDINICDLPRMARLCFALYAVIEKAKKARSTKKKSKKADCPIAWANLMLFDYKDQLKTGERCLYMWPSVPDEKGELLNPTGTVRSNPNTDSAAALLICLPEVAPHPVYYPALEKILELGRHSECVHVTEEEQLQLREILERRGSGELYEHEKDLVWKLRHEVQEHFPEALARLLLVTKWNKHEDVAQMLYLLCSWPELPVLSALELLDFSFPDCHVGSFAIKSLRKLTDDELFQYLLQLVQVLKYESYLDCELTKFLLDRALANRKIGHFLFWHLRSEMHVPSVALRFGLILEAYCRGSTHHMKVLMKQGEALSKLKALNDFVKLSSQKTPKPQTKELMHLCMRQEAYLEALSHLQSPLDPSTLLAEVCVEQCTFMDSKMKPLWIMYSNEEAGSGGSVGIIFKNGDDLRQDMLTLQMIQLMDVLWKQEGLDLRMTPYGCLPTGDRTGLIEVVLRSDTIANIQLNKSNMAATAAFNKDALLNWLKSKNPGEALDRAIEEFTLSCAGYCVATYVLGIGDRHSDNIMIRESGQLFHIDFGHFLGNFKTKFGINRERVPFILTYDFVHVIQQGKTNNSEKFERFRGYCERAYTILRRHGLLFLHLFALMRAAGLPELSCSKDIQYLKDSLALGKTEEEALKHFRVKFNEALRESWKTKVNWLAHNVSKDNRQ
Sequence (P27986 whole entry partner): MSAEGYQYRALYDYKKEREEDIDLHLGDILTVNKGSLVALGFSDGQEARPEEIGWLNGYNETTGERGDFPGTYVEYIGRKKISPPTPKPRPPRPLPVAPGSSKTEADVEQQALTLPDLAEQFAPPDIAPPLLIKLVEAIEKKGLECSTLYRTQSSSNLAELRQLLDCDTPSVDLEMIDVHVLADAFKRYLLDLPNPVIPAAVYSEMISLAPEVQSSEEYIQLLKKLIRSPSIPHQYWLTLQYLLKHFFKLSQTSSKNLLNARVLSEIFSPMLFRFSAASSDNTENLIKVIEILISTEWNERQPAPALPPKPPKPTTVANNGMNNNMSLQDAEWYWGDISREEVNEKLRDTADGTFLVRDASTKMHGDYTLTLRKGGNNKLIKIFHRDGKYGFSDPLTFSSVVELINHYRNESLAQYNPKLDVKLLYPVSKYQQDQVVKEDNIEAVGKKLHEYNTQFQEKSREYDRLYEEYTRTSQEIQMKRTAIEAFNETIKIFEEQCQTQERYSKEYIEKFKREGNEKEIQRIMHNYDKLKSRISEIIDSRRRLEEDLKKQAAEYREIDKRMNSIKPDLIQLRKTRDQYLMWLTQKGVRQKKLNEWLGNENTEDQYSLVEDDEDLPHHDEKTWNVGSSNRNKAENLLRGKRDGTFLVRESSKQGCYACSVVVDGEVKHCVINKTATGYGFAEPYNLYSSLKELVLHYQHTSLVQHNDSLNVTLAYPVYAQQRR
Test: PI3Kδ Scintillation Proximity Assay
Excerpt: Example C. PI3Kδ Scintillation Proximity Assay [γ-^33P]ATP (10 mCi/mL) and Wheat Germ Agglutinin (WGA) YSi SPA Scintillation Beads was purchased from Perkin-Elmer (Waltham, Mass.). Lipid kinase substrate, D-myo-Phosphatidylinositol 4,5-bisphosphate (PtdIns(4,5)P2)D (+)-sn-1,2-di-O-octanoylglyceryl, 3-O-phospho linked (PIP2), CAS 204858-53-7, was purchased from Echelon Biosciences (Salt Lake City, Utah). PI3Kδ (p110δ/p85α) Recombinant Human Protein was purchased from Eurofins (St Charles, Mo.). […]
pIC50: −log10 of the molar value. Where a name gives a salt, the structure may show the parent alone.

molecule: Cc1ccc(S(=O)(=O)NC23CCC(O)(CC2)C3)cc1-c1cnc2c(N)ncnn12 [Example 442, trifluoroacetate salt]
observable: pIC50
resultValue: 5.70 to 6.30

PI3Kδ (p110δ/p85α) Recombinant Human Protein (Homo sapiens (Human), UniProt O00329) data for "Cc1ccc(S(=O)(=O)N2CCS(=O)(=O)CC2)cc1-c1cnc2c(N)ncnn12" ; its pIC50: 6.30 to 7.00

Simply: "Cc1ccc(S(=O)(=O)NC23CC(C(C)(C)O)(C2)C3)cc1-c1cnc2c(N)ncnn12" , PI3Kδ (p110δ/p85α) Recombinant Human Protein (Homo sapiens (Human), UniProt O00329), pIC50 = 6.30 to 7.00

Value (pIC50, PI3Kδ (p110δ/p85α) Recombinant Human Protein (Homo sapiens (Human), UniProt O00329)) for record "CO[C@H]1CC[C@H](NS(=O)(=O)c2ccc(C)c(-c3cnc4c(N)nccn34)c2)CC1" = 5.70 to 6.30

Entry "C[C@]1(O)CC[C@H](NS(=O)(=O)c2cc(-c3cnc4c(N)nc(-c5ccccc5F)cn34)ccc2F)CC1" ; assay system PI3Kδ (p110δ/p85α) Recombinant Human Protein (Homo sapiens (Human), UniProt O00329); pIC50 recorded at > 7.00

PI3Kδ (p110δ/p85α) Recombinant Human Protein (Homo sapiens (Human), UniProt O00329) pIC50 of "Cc1ccc(S(=O)(=O)N[C@H]2CC[C@](C)(O)CC2)cc1-c1cnc2c(N)ncnn12" is 6.30 to 7.00

Tested on PI3Kδ (p110δ/p85α) Recombinant Human Protein (Homo sapiens (Human), UniProt O00329), the item CC(=O)N1CC(NS(=O)(=O)c2ccc(C)c(-c3cnc4c(N)ncnn34)c2)C1 [Example 103, trifluoroacetate salt] showed pIC50 equal to 5.70 to 6.30

====

biological target: PI3Kδ (p110δ/p85α) Recombinant Human Protein (Homo sapiens (Human)); experiment: PI3Kδ Scintillation Proximity Assay
IC50: recorded values

molecule: Cc1ccc(S(=O)(=O)N2CC3(C2)CC(O)(C(F)(F)F)C3)cc1-c1cnc2c(N)ncnn12
IC50: 100 to 500 nM

Form field IC50, entry "COc1cc(C)c(-c2cnc3c(N)nccn23)cc1S(=O)(=O)N[C@H]1CC[C@H](O)CC1" : < 100 nM

====

tested on: Phosphorylated Ribosomal Protein S6 (RPS6); assay: THP-1 RPS6 ELISA Assay; type: cell-based, Human; settings: THP-1 cells; read-out: PI3Kγ_THP1_RPS6_ELISA IC50
pIC50: −log10 of the molar value. Counter-ions that a name gives are not always drawn.
observable: pIC50

Use these answered entries as a reference point.
compound: Cc1nc(N)c2ncc(-c3cc(S(=O)(=O)NC45CCC(CO)(C4)C5)ccc3C)n2n1 [Example 268, trifluoroacetate salt]
pIC50: 6.30 to 7.00
--
compound: Cc1ccc(S(=O)(=O)N2CC3(CC(O)C3)C2)cc1-c1cnc2c(N)ncnn12 [Example 145, TFA]
pIC50: 6.30 to 7.00

Per the record, COc1ncccc1-c1cn2c(-c3cc(S(C)(=O)=O)ccc3C)cnc2c(N)n1 [Example 477, trifluoroacetate] has pIC50 of 6.30 to 7.00

====

biological target: PI3Kδ (p110δ/p85α) Recombinant Human Protein (Homo sapiens (Human)); assay: PI3Kδ Scintillation Proximity Assay
pIC50: −log10 of the molar value. Structures can show the parent of a compound that is named as a salt.
observable: pIC50

Please review the following examples before continuing.
molecule: Cc1ccc(S(=O)(=O)N2C[C@H](N)C[C@H](C(F)(F)F)C2)cc1-c1cnc2c(N)nc(C(F)(F)F)cn12
resultValue: > 7.00

molecule: Cc1ccc(S(=O)(=O)N2CC[C@@H](F)[C@@H](N)C2)cc1-c1cnc2c(N)nc(C(F)(F)F)cn12
resultValue: > 7.00

molecule: N#CC12CCC(NS(=O)(=O)c3cc(-c4cnc5c(N)ncnn45)ccc3F)(C1)C2 [Example 365, trifluoroacetate salt]
resultValue: 6.30 to 7.00

pIC50 for "Cc1ccc(S(=O)(=O)N2CCC(O)CC2)cc1-c1cnc2c(N)ncnn12" is < 5.70

pIC50 measured on Cc1ccc(S(=O)(=O)NC23COC(C)(C2)C3)cc1-c1cnc2c(N)ncnn12 [Example 424, trifluoroacetate salt] = 6.30 to 7.00

====

tested on: Phosphorylated Ribosomal Protein S6 (RPS6); assay: THP-1 RPS6 ELISA Assay; format: cell-based, Human; conditions: THP-1 cells; read-out: PI3Kγ_THP1_RPS6_ELISA IC50
Where a name gives a salt, the structure may show the parent alone.
observable: IC50

compound: Cc1ccc(S(=O)(=O)NC23CC(C2)C3)cc1-c1cnc2c(N)ncnn12 [Example 106, trifluoroacetate salt]
IC50: > 1000 nM
--
compound: Cc1nc(N)c2ncc(-c3cc(S(=O)(=O)NCC(O)C(F)(F)F)ccc3C)n2n1 (single isomer, unassigned) [Example 266]
IC50: 100 to 500 nM
--
compound: Cc1cc(Cl)c(S(=O)(=O)N[C@H]2CC[C@](C)(O)CC2)cc1-c1cnc2c(N)nc(C(F)(F)F)nn12 [Example 410, trifluoroacetate salt]
IC50: < 100 nM
--
compound: Cc1nc(N)c2ncc(-c3cc(S(=O)(=O)NC45CCC(C#N)(C4)C5)ccc3C)n2n1 [Example 265, trifluoroacetate salt]
IC50: < 100 nM
--
compound: Cc1nc(N)c2ncc(-c3ccc(F)c(S(=O)(=O)NC45CCC(C#N)(C4)C5)c3)n2n1 [Example 387, trifluoroacetate salt]
IC50: < 100 nM
--
compound: Cc1nc(N)c2ncc(-c3cc(S(=O)(=O)NCC(C)(C)O)c(Cl)cc3C)n2n1 [Example 403, trifluoroacetate salt]
IC50: < 100 nM
--
compound: Cc1nc(N)c2ncc(-c3cc(S(=O)(=O)N[C@H]4CC[C@](C)(O)CC4)ccc3C)n2n1 [Example 271, trifluoroacetate salt]
IC50: < 100 nM
--
compound: Cc1ccc(S(=O)(=O)NC23CC(c4cnco4)(C2)C3)cc1-c1cnc2c(N)ncnn12 [Example 111, trifluoroacetate salt]
IC50: 100 to 500 nM

Measured IC50 of Cc1cc(F)c(S(=O)(=O)N[C@H]2CC[C@](C)(O)CC2)cc1-c1cnc2c(N)nc(C(F)(F)F)nn12 [Example 412, trifluoroacetate salt] : < 100 nM

get_value(item= Cc1ccc(S(=O)(=O)N[C@H]2CC[C@H](O)CC2)cc1-c1cn2cc(-c3ccccc3F)nc(N)c2n1 [Example 22] , readout=IC50) returns < 100 nM

In plain terms, Cc1ccc(S(=O)(=O)NC23CC(Cn4ccnc4)(C2)C3)cc1-c1cnc2c(N)ncnn12 [Example 112, trifluoroacetate salt] has a documented IC50 of 100 to 500 nM

====

molecular target: PI3Kγ (p110γ) Recombinant Human Protein (Homo sapiens (Human), UniProt P48736); assay: PI3K-γ Scintillation Proximity Assay; format: biochemical; conditions: read-out: PI3Kγ IC50
Sequence (P48736 whole entry): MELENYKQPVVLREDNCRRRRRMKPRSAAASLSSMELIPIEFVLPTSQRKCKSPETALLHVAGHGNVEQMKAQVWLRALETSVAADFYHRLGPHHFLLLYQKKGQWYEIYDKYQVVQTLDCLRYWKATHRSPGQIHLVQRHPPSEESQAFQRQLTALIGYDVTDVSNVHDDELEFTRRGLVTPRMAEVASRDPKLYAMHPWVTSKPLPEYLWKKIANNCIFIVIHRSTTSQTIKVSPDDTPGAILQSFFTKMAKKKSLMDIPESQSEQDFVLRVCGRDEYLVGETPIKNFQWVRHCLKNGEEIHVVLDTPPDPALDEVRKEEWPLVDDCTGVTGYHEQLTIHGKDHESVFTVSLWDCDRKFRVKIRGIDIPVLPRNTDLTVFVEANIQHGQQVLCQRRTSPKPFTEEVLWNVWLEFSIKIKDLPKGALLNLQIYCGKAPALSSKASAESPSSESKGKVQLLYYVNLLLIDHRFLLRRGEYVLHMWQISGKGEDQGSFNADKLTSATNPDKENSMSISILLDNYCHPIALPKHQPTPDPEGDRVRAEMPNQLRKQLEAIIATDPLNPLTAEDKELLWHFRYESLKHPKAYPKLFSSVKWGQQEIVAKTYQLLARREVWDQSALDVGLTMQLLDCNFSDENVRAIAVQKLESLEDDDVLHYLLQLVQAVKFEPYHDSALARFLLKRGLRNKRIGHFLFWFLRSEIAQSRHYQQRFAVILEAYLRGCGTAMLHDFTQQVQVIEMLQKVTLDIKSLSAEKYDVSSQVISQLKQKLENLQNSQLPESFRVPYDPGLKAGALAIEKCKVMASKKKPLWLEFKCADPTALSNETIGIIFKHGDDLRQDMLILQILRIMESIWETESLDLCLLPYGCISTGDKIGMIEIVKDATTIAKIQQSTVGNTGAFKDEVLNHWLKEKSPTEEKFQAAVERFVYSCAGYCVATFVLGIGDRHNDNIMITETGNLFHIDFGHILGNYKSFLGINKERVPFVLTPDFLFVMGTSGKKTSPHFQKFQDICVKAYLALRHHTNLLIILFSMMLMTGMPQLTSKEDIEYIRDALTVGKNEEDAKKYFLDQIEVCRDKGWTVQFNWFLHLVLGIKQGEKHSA
pIC50: −log10 of the molar value. Where a name gives a salt, the structure may show the parent alone.
# pIC50 listing for each entry below

compound: Cc1ccc(S(=O)(=O)N(C)CC2(CO)CC2)cc1-c1cnc2c(N)ncnn12
resultValue: 6.30 to 7.00

compound: Cc1ccc(S(=O)(=O)N[C@H]2CC[C@H](O)CC2)cc1-c1cnc2c(N)nc(-c3ccncc3F)cn12
resultValue: > 7.00

compound: Cc1ccc(S(=O)(=O)NC2CC(F)(F)C2)cc1-c1cnc2c(N)ncnn12
resultValue: > 7.00

compound: Cc1ccc(S(=O)(=O)N2CCCC(NC(=O)OC(C)(C)C)C2)cc1-c1cnc2c(N)nc(C(F)(F)F)cn12 (centres unmarked)
resultValue: 6.30 to 7.00

compound: Cc1ccc(S(=O)(=O)CCC(C)(C)O)cc1-c1cnc2c(N)nc(C(F)(F)F)cn12
resultValue: > 7.00

For this compound ( Cc1ccc(S(=O)(=O)NC23CCC(C#N)(C2)C3)cc1-c1cnc2c(N)ncnn12 [Example 251, trifluoroacetate salt] ), measured pIC50 is > 7.00

// pIC50 value for Cc1ccc(S(C)(=O)=O)cc1-c1cnc2c(N)nc(-c3ccc(C(F)F)cc3)cn12 [Example 475, trifluoroacetate] : > 7.00

Entry "Cc1ccc(S(=O)(=O)N2CC(=O)N3CCCC[C@@H]3C2)cc1-c1cnc2c(N)ncnn12" , pIC50 reported as 6.30 to 7.00

pIC50 in this record for CCS(=O)(=O)Nc1cc(-c2cnc3c(N)cc(Cl)cn23)c[nH]c1=O [Example 6, trifluoroacetate] : 5.70 to 6.30

Lab note: measured pIC50 of Cc1ccc(S(N)(=O)=O)cc1-c1cnc2c(N)nc(C(F)(F)F)nn12 [Example 336, trifluoroacetate salt] was > 7.00

Entry Cc1ccc(S(=O)(=O)N[C@H]2CC[C@H](CC#N)OC2)cc1-c1cnc2c(N)nc(C(=O)NC3CC(F)(F)C3)cn12 [Example 451, trifluoroacetate salt] , pIC50 reported as > 7.00
